Kindly state pIC50 for each of the entries shown.
- System: SH-SY5Y human neuroblastoma cells
- Measurement notes: MTT cytotoxicity assay, SH-SY5Y
- Type: cell-based
- Condition details: Homo sapiens, SH-SY5Y, mean ± SD, read-out: Cytotoxic activity IC50, SH-SY5Y
pIC50 is defined as minus the log10 of a concentration measured in mol/L.

The recorded pIC50 for Cc1ccc(C(=O)NCCS(=O)(=O)N2CCOCC2)cc1 [Compound 8] is 4.10

The recorded pIC50 for NS(=O)(=O)CCNC(=O)c1ccccc1 [Compound 9, N-(2-sulfamoylethyl)benzamide] is 4.09

The recorded pIC50 for O=C(NCCS(=O)(=O)N1CCOCC1)c1ccc(Cl)cc1 [Compound 6] is 4.09
